- measured on: EPHB1 (UniProt P54762)
- Sequence (P54762 whole entry, looked up): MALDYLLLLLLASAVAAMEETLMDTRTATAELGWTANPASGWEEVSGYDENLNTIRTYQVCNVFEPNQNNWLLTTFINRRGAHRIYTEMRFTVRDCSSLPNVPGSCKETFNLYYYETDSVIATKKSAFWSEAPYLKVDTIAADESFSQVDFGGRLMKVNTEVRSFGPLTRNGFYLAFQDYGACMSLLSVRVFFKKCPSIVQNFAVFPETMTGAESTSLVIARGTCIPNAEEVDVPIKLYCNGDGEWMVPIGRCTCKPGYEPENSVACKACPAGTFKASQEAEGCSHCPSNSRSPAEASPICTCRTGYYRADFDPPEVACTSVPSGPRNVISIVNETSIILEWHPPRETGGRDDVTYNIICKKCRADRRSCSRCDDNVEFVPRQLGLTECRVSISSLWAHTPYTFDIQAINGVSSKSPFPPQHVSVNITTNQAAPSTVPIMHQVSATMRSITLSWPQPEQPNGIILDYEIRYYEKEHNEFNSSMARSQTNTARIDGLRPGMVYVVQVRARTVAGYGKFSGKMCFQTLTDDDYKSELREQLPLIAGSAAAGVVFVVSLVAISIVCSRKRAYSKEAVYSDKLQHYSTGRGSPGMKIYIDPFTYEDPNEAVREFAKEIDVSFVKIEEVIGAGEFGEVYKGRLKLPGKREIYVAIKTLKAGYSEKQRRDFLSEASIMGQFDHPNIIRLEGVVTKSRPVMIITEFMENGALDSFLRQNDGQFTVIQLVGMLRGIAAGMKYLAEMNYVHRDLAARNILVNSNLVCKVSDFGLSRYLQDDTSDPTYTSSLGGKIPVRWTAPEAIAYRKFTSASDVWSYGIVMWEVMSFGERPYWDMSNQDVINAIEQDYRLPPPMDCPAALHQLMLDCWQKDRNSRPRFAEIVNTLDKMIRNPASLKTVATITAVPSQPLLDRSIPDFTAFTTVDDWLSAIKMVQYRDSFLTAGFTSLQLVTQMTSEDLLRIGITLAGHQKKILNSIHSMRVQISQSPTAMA
- assay procedure: phosphorylation enrichment, bacterial display (enrichment ratio); higher = better substrate or ligand; peptides without Tyr show the background
measured property: phosphorylation enrichment
Write the value as a bare number.

Please indicate recorded phosphorylation enrichment of PKGTGYIKTEL [STAT1_Y701] measured with EPHB1 (UniProt P54762).
0.411

Please indicate recorded phosphorylation enrichment of FGSRLYKFAFK [FANCD2_Y458_L456R_YF] measured with EPHB1 (UniProt P54762).
0.354

Please indicate recorded phosphorylation enrichment of GSRGKYSSGFC [ATM_Y332_R337C] measured with EPHB1 (UniProt P54762).
0.441

Please indicate recorded phosphorylation enrichment of IDPFTYTPFGS [CYP3A4_Y432_I431T_YF] measured with EPHB1 (UniProt P54762).
0.431

Please indicate recorded phosphorylation enrichment of HNVPIYEGFGL [ACTA1_Y168_A172G_YF] measured with EPHB1 (UniProt P54762).
24.2

Please indicate recorded phosphorylation enrichment of LIDTVYSSSSA [OR4C12_Y71] measured with EPHB1 (UniProt P54762).
0.757

Please indicate recorded phosphorylation enrichment of EHEALYLEADL [CENPF_Y1920] measured with EPHB1 (UniProt P54762).
0.57

Please indicate recorded phosphorylation enrichment of ENAGFYFQVSA measured with EPHB1 (UniProt P54762).
0.483

Please indicate recorded phosphorylation enrichment of KGEDFYYVTCH [FHL1_Y149_C150Y] measured with EPHB1 (UniProt P54762).
0.802

---

- System: c-Abl (mouse)
- assay procedure: phosphorylation enrichment, bacterial display (enrichment ratio); higher = better substrate or ligand; peptides without Tyr show the background
measured property: phosphorylation enrichment
Write the value as a bare number.

Please give measured phosphorylation enrichment of the following entry: SVTCTYSPALH [TP53_Y126_N131H]
0.808

Please give measured phosphorylation enrichment of the following entry: EDGRLYAVKCS [PKMYT1_Y136_R140C]
0.82

Please give measured phosphorylation enrichment of the following entry: GIVEDYRPPLF [ACVRL1_Y421_F425L_YF]
0.511

Please give measured phosphorylation enrichment of the following entry: RREQDYTNLPS [CSF1R_Y923_R921Q]
0.691

Please give measured phosphorylation enrichment of the following entry: VQVAYYTMMMN [SPATA17_Y84]
1.15

Please give measured phosphorylation enrichment of the following entry: SASRSYSRSRS [SRRM4_Y549]
0.659

Please give measured phosphorylation enrichment of the following entry: RFLTRYIFNRE [HLA-DQB1_Y62_V59L_YF]
0.631

---

- measured on: FGFR1 (UniProt P11362)
- Sequence (P11362 whole entry, looked up): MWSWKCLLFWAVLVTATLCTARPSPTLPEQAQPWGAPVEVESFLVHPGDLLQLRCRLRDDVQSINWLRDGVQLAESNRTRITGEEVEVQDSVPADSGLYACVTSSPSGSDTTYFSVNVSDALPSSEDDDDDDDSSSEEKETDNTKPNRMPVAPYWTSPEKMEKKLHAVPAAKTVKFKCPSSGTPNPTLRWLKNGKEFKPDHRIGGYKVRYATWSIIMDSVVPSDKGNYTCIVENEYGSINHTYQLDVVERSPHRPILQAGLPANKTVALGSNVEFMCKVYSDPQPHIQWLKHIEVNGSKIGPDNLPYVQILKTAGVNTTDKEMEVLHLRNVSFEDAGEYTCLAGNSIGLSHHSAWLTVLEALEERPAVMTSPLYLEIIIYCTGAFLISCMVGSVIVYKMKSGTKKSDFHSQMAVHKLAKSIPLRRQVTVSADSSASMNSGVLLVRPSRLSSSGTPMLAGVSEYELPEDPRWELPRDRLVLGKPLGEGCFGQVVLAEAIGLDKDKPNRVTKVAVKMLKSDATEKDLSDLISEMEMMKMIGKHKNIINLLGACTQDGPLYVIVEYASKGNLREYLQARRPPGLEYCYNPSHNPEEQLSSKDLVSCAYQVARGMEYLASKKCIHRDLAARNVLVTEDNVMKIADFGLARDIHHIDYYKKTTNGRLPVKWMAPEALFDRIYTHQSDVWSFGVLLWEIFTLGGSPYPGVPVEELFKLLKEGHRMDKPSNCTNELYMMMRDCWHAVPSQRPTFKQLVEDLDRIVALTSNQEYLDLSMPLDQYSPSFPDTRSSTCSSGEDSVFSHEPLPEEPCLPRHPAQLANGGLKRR
- assay procedure: phosphorylation enrichment, bacterial display (enrichment ratio); higher = better substrate or ligand; peptides without Tyr show the background
Tag: class 1 if measured phosphorylation enrichment is not below 0.5, class 0 if it is.

LPENPYHSRPR [NDUFA8_Y142] ... class 0

Here's the next entry for you.
Threshold query (phosphorylation enrichment >= 0.5) on GIVEDYRPPLF [ACVRL1_Y421_F425L_YF]
class 0

---

- Test system: AncSZ
- assay procedure: phosphorylation enrichment, bacterial display (enrichment ratio); higher = better substrate or ligand; peptides without Tyr show the background
phosphorylation enrichment: recorded values
Write the value as a bare number.

AVLQPYIFVAT [CFTR_Y1014] ... 1.56
EQYELHCEMGS [CBL_Y371_Y371H] ... 1.33
KLIETCFSKNF [PLP1_Y50_Y50C_YF] ... 1.14

Please give measured phosphorylation enrichment of the following entry: PLGPLYASSNT [INSR_Y992_P997T]
1.87

Please give measured phosphorylation enrichment of the following entry: TDLAFYLVRKG [ASL_Y376_YF]
1.4

Please give measured phosphorylation enrichment of the following entry: TMKSHYMELYD [BBS2_Y644_R643H]
0.807

Please give measured phosphorylation enrichment of the following entry: PLLTDYSPQLQ [OTC_Y345_S340P]
1.54

Please give measured phosphorylation enrichment of the following entry: EKSREYDRLFE [PIK3R1_Y463_YF]
0.929

---

- Tested on: AncSZ
- assay procedure: phosphorylation enrichment, bacterial display (enrichment ratio); higher = better substrate or ligand; peptides without Tyr show the background
Tag: t if measured phosphorylation enrichment is not below 0.9, f if it is.

LKRIAYFLCLL [LGI1_Y21] ... t
CNRADYSKLAS [GNE_Y22_P27S] ... t
LRSKQYLRNPP [SHC1_Y315_F312S] ... f
GVRLYYRVMES [RB1_Y454] ... t
ESLRRYLENGK [HLA-B_Y195_W191S] ... f
DGFTDYAEFAK [MCFD2_Y138_I136T_YF] ... t

Here's the next entry for you.
Threshold query (phosphorylation enrichment >= 0.9) on GRVFVYRLSEQ [ITGAE_Y551_YF]
f

---

- measured on: SHP2-C SH2
- assay procedure: SH2 binding enrichment of the phosphorylated peptide, bacterial display (enrichment ratio); higher = better substrate or ligand; peptides without Tyr show the background
measured property: SH2 binding enrichment
Write the value as a bare number.

Example entries begin here.
WFQTKYEELQI [KRT6B_Y360_YF] ... 1.12
VVAHQYSFAPD [TNS3_Y601] ... 0.657
NGVSFYINLCQ [IGF2R_Y2025_YF] ... 0.651
RSSGGYEPRGC [FUS_Y239_R244C] ... 0.872
TNLVPYPRIHF [TUBA1A_Y262] ... 0.842

Please indicate recorded SH2 binding enrichment of NAGAFYALSTL [FLVCR2_Y325] measured with SHP2-C SH2.
0.837

Please indicate recorded SH2 binding enrichment of TDLAFYLVRKG [ASL_Y376_YF] measured with SHP2-C SH2.
0.662

Please indicate recorded SH2 binding enrichment of HFGCIYHGTLL [MET_Y1093_V1092I] measured with SHP2-C SH2.
0.548

Please indicate recorded SH2 binding enrichment of GMRHGYGVRQS [JPH2_Y141] measured with SHP2-C SH2.
1.41

Please indicate recorded SH2 binding enrichment of FFRKVYHLASV [RBL1_Y796_YF] measured with SHP2-C SH2.
0.721

Please indicate recorded SH2 binding enrichment of YQQLFYLLQIN [IQGAP2_Y890_T894I] measured with SHP2-C SH2.
1.28

Please indicate recorded SH2 binding enrichment of CTTIHYNYICN [TP53_Y234_M237I] measured with SHP2-C SH2.
4.45

---

- measured on: SHP2-C SH2
- assay procedure: SH2 binding enrichment of the phosphorylated peptide, bacterial display (enrichment ratio); higher = better substrate or ligand; peptides without Tyr show the background
Tag: yes (1) if measured SH2 binding enrichment is not below 0.9, no (0) if it is.

QPSPSYDSSGG [TCF12_Y70_R74G] ... yes (1)
RGVTRYIFNRE [HLA-DQB1_Y62_Y58G_YF] ... no (0)
FGAHNHHPLPV [OAT_Y55_Y55H_YF] ... yes (1)

Threshold query (SH2 binding enrichment >= 0.9) on RKGGSYSQAAS [HLA-A_Y344_T345S]
no (0)

---

SH2 binding enrichment: recorded values
- measured on: SHP2-C SH2
- assay procedure: SH2 binding enrichment of the phosphorylated peptide, bacterial display (enrichment ratio); higher = better substrate or ligand; peptides without Tyr show the background
Write the value as a bare number.

Example entries begin here.
DEFLEYRRIVG [FAM221A_Y20_YF] ... 1
FSPCDYQPCLA [TNS1_Y798_Y796C_YF] ... 0.843
VYPATYHPDHW [EFCAB12_Y544] ... 0.635
CDLTDYLMKIL [ACTA1_Y190_R185C] ... 0.647
KGEDFYSVTCH [FHL1_Y149_C150S] ... 0.706
PLLTDYSPQLQ [OTC_Y345_S340P] ... 0.656

Please give measured SH2 binding enrichment of the following entry: HTDDGYMPMSP [IRS1_Y612]
0.882

---

- measured on: SHP2-C SH2
- assay procedure: SH2 binding enrichment of the phosphorylated peptide, bacterial display (enrichment ratio); higher = better substrate or ligand; peptides without Tyr show the background
SH2 binding enrichment: recorded values

Example entries begin here.
KGEDFYYVTCH [FHL1_Y149_C150Y] ... 0.565
GSRGKYSSGFC [ATM_Y332_R337C] ... 1.16
RLLVVYRWTQR [HBB_Y36_P37R] ... 0.799

Please give measured SH2 binding enrichment of the following entry: GSERDYTYEEL [EIF2S2_Y174]
0.761

Please give measured SH2 binding enrichment of the following entry: TVQVAYFTVMM [SPATA17_Y83_M86V_YF]
0.651

Please give measured SH2 binding enrichment of the following entry: NPQKSCFIRLY [WAS_Y83_Y83C]
0.654
